These data points were gathered from PubChem BioAssay AID1159580.

What normalized growth was measured for each of the following?
Assay: chemical genetic growth profiling, strain panel (AID 1159580);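 further: tested at 20 µM; growth read once vehicle control cultures reached saturation at 30 °C; 1 = growth at the plate median or of vehicle wells; lower values mean less growth of the strain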
Conditions: S. cerevisiae deletion strains, growth OD, locus YDL192W, strain arf1, active compounds read low
Among all 5,500 compounds or so, about 2,000 (36%) were called active. Roughly 18% stayed inconclusive and do not appear here. Some of the results follow.
The reply should be a number, written without any unit.

For reference, reported normalized growth for CCC1OC(=O)[C@H](C)C(=O)[C@H](C)[C@@H](OC2O[C@H](C)C[C@H](N(C)C)[C@H]2O)[C@](C)(OC)C2(CCCn3cnc(-c4cccnc4)c3)C[C@@H](C)C(=O)[C@H](C)[C@H]3N(C2)C(=O)O[C@]13C (stereo partly drawn) stands at 1.01

For reference, reported normalized growth for "COc1ccc(-c2oc3c(CC=C(C)C)c(O[C@@H]4O[C@H](CO)[C@@H](O)[C@H](O)[C@H]4O)cc(O)c3c(=O)c2O[C@@H]2O[C@@H](C)[C@H](O)[C@@H](O)[C@H]2O)cc1" stands at 0.987

For reference, reported normalized growth for "CCCCOc1cc(C(=O)NCCN(CC)CC)c2ccccc2n1" stands at 1

* * *

Assay: chemical genetic growth profiling, strain panel (AID 1159580);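 further: tested at 20 µM; growth read once vehicle control cultures reached saturation at 30 °C; 1 = growth at the plate median or of vehicle wells; lower values mean less growth of the strain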
Conditions: S. cerevisiae deletion strains, growth OD, locus YDL134C, strain PPH21, active compounds read low
About 2,000 (36%) of roughly 5,500 compounds were called active. Roughly 18% stayed inconclusive and do not appear here. The list shows a part of the results.
Measured endpoint: normalized growth

For reference, reported normalized growth for NC(=O)NCCCC(N)C(=O)O (stereo not given) stands at 1.02 (inactive)

For reference, reported normalized growth for "COC(=O)CSc1ncnc2c(C)csc12" stands at 0.973 (inactive)

For reference, reported normalized growth for "COc1ccc(-c2oc3cc(O[C@H]4O[C@H](CO)[C@@H](O)[C@H](O)[C@H]4O)c(OC)c(O)c3c(=O)c2OC)cc1O" stands at 0.982 (inactive)

For reference, reported normalized growth for "C[C@@H]([C@H](O)c1ccccc1)N(C)C" stands at 1 (inactive)

For reference, reported normalized growth for "CCCCCCCCCCCC1=C(O)C(=O)C=C(O)C1=O" stands at 0.956 (inactive)

For reference, reported normalized growth for "COC(=O)c1c(C)cc(OC)cc1O" stands at 1 (inactive)

For reference, reported normalized growth for "CN(C)c1nc(N)c(C(=O)N=C(N)N)nc1Cl" stands at 0.999 (inactive)

For reference, reported normalized growth for "Cc1cc(OC(=O)c2c(C)cc(OC(=O)c3c(C)cc(O)cc3O)cc2O)cc(O)c1C(=O)O" stands at 1.03 (inactive)

For reference, reported normalized growth for CC12CCC3c4ccc(OCc5ccccc5)cc4CCC3C1C[C@@H](O)[C@@H]2O (stereo not given in full) stands at 0.055 (active)

For reference, reported normalized growth for CC(=O)Oc1ccc2c(c1OC(C)=O)OCC1(O)Cc3c(cc(OC(C)=O)c(OC(C)=O)c3OC(C)=O)C21 (stereo not given) stands at 0.997 (inactive)

For reference, reported normalized growth for "CN1C(C)(C)CCCC1(C)C" stands at 1.02 (inactive)

For reference, reported normalized growth for CCN(Cc1ccncc1)C(=O)C(CO)c1ccccc1 (stereo not given) stands at 0.999 (inactive)

For reference, reported normalized growth for "CCOC(=O)c1c(C)cc(OC)cc1O" stands at 0.996 (inactive)

For reference, reported normalized growth for "O=c1c(O)c(-c2ccc(O)c(O)c2)oc2cc(O)cc(O)c12" stands at 0.932 (inactive)

For reference, reported normalized growth for COc1ccc2c(c1)CCC1C2CCC2(C)C1C[C@@H](O)C2O (stereo not given in full) stands at 0.952 (inactive)

For reference, reported normalized growth for "CCCCOc1cc(C(=O)NCCN(CC)CC)c2ccccc2n1" stands at 1.03 (inactive)

For reference, reported normalized growth for "NC(N)=NC(=O)c1nc(Cl)c(N2CCCCCC2)nc1N" stands at 1.01 (inactive)

For reference, reported normalized growth for "Cc1cc(OC(=O)c2c(C)cc(O)cc2O)cc(O)c1C(=O)O" stands at 0.99 (inactive)

For reference, reported normalized growth for Oc1cc2c(cc1O)C1c3ccc(O)c(O)c3OCC1(O)C2 (stereo not given) stands at 0.832 (active)

For reference, reported normalized growth for "CCOC(=O)c1c(C)cc(O)cc1O" stands at 0.874 (active)

For reference, reported normalized growth for O=C1CC(Nc2ccccc2)C=C1Nc1ccccc1 (stereo not given) stands at 1.02 (inactive)

For reference, reported normalized growth for COc1ccc2c(c1)CCC1C2CC[C@@]2(C)C1CC[C@@H]2O (stereo not given in full) stands at 0.799 (active)

For reference, reported normalized growth for "CCOC(=O)/C(C#N)=C/c1ccc(Br)cc1" stands at 0.972 (inactive)

For reference, reported normalized growth for "CCC(=O)c1c(O)cc(O)cc1O" stands at 1.01 (inactive)

For reference, reported normalized growth for "Clc1ccc(C=C2c3ccccc3-c3ccccc32)cc1" stands at 1 (inactive)
